Data provenance is patent EP0193189A1.

Entries and their measured mortality at 3.5 ppm follow.
- System: common mosquito (Culex pipiens pallens)
- PROTOCOL TEXT: Test Example 1: common mosquito larvae in diluted emulsifiable concentrate, mortality and emergence inhibition
- Type: in vivo
- EXPERIMENTAL PARAMETERS: Culex pipiens, 24 h; 3.5 ppm; 20 last instar larvae; after one day; read-out: Mortality
EXPERIMENTAL READOUT: mortality at 3.5 ppm

{"MOLECULE": "C#CC(C)(CCCc1ccc(F)c(Cc2ccccc2)c1)c1ccc(OCC)cc1 (centres unmarked)", "EXPERIMENTAL READOUT": "mortality at 3.5 ppm", "OBSERVED RESULT": "> 90%"}
{"MOLECULE": "C#CC(C)(CCCc1ccc(F)c(Oc2ccc(Cl)cc2)c1)c1ccc(OCC)cc1 (centres unmarked)", "EXPERIMENTAL READOUT": "mortality at 3.5 ppm", "OBSERVED RESULT": "> 90%"}
{"MOLECULE": "C#CC(C)(CCCc1cccc(Oc2ccccc2)c1)c1ccc(OC(F)F)cc1 (centres unmarked)", "EXPERIMENTAL READOUT": "mortality at 3.5 ppm", "OBSERVED RESULT": "> 90%"}
{"MOLECULE": "C#CC(C)(CCCc1ccc(F)c(Oc2ccccc2)c1)c1ccc(OCC=C)cc1 (centres unmarked)", "EXPERIMENTAL READOUT": "mortality at 3.5 ppm", "OBSERVED RESULT": "> 90%"}
{"MOLECULE": "C#CC(CCCc1ccc(F)c(Oc2ccccc2)c1)c1ccc(OCC)cc1 (centres unmarked)", "EXPERIMENTAL READOUT": "mortality at 3.5 ppm", "OBSERVED RESULT": "> 90%"}
{"MOLECULE": "C#CC(CCCC)(CCCc1ccc(F)c(Oc2ccccc2)c1)c1ccc(OCC)cc1 (centres unmarked)", "EXPERIMENTAL READOUT": "mortality at 3.5 ppm", "OBSERVED RESULT": "10 to 90%"}
{"MOLECULE": "C#CC(C)(CCCc1cccc(Oc2ccccc2)c1)c1ccc(F)cc1 (centres unmarked)", "EXPERIMENTAL READOUT": "mortality at 3.5 ppm", "OBSERVED RESULT": "> 90%"}
{"MOLECULE": "C#CC(C)(CCCc1cccc(Oc2ccccc2)n1)c1ccc(OCC)cc1 (centres unmarked)", "EXPERIMENTAL READOUT": "mortality at 3.5 ppm", "OBSERVED RESULT": "> 90%"}
{"MOLECULE": "C#CC(C)(CCCc1ccc(F)c(Oc2ccccc2)c1)c1ccc2c(c1)OCO2 (centres unmarked)", "EXPERIMENTAL READOUT": "mortality at 3.5 ppm", "OBSERVED RESULT": "> 90%"}
{"MOLECULE": "C#CC(C)(CCCc1ccc(F)c(Oc2ccccc2)c1)c1ccc(OCC=C)c(Cl)c1 (centres unmarked)", "EXPERIMENTAL READOUT": "mortality at 3.5 ppm", "OBSERVED RESULT": "10 to 90%"}
{"MOLECULE": "C#CC(C)(CCCc1cccc(Sc2ccccc2)c1)c1ccc(OCC)cc1 (centres unmarked)", "EXPERIMENTAL READOUT": "mortality at 3.5 ppm", "OBSERVED RESULT": "10 to 90%"}
{"MOLECULE": "C#CC(C)(CCCc1ccc(F)c(Oc2ccccc2)c1)c1ccc(OCC)cc1 (centres unmarked)", "EXPERIMENTAL READOUT": "mortality at 3.5 ppm", "OBSERVED RESULT": "> 90%"}
{"MOLECULE": "C#CC(C)(CCCc1ccc(F)c(Oc2ccccc2)c1)c1ccc(OC(F)F)c(Cl)c1 (centres unmarked)", "EXPERIMENTAL READOUT": "mortality at 3.5 ppm", "OBSERVED RESULT": "10 to 90%"}
{"MOLECULE": "C#CC(C)(CCCc1ccc(F)c(Oc2ccccc2)c1)c1ccc(C(F)(F)F)cc1 (centres unmarked)", "EXPERIMENTAL READOUT": "mortality at 3.5 ppm", "OBSERVED RESULT": "> 90%"}
{"MOLECULE": "C#CC(C)(CCCc1cccc(Oc2ccccc2)c1)c1ccc(OCC)c(Cl)c1 (centres unmarked)", "EXPERIMENTAL READOUT": "mortality at 3.5 ppm", "OBSERVED RESULT": "10 to 90%"}
{"MOLECULE": "C#CC(C)(CCCc1ccc(F)c(Oc2ccccc2)c1)c1ccc(OCC)c(Cl)c1 (centres unmarked)", "EXPERIMENTAL READOUT": "mortality at 3.5 ppm", "OBSERVED RESULT": "> 90%"}
{"MOLECULE": "C#CC(C)(CCCc1cccc(Oc2ccccc2)c1)c1ccc(CC)cc1 (centres unmarked)", "EXPERIMENTAL READOUT": "mortality at 3.5 ppm", "OBSERVED RESULT": "> 90%"}
{"MOLECULE": "C#CC(C)(CCCc1ccc(F)c(Oc2ccccc2)c1)c1ccc(Cl)cc1 (centres unmarked)", "EXPERIMENTAL READOUT": "mortality at 3.5 ppm", "OBSERVED RESULT": "> 90%"}
{"MOLECULE": "C#CC(C)(CCCc1cccc(Oc2ccccc2)n1)c1ccc(OC)cc1 (centres unmarked)", "EXPERIMENTAL READOUT": "mortality at 3.5 ppm", "OBSERVED RESULT": "10 to 90%"}
{"MOLECULE": "C#CC(C)(CCCc1cccc(Oc2ccccc2)c1)c1ccc(OC)cc1 (centres unmarked)", "EXPERIMENTAL READOUT": "mortality at 3.5 ppm", "OBSERVED RESULT": "10 to 90%"}
{"MOLECULE": "C#CC(C)(CCCc1ccc(F)c(Oc2ccccc2)c1)c1ccc(OC(F)F)cc1 (centres unmarked)", "EXPERIMENTAL READOUT": "mortality at 3.5 ppm", "OBSERVED RESULT": "> 90%"}
{"MOLECULE": "C#CC(CCCc1cccc(Oc2ccccc2)c1)c1ccc(OCC)cc1 (centres unmarked)", "EXPERIMENTAL READOUT": "mortality at 3.5 ppm", "OBSERVED RESULT": "> 90%"}
{"MOLECULE": "C#CC(CC)(CCCc1cccc(Oc2ccccc2)c1)c1ccc(OCC)cc1 (centres unmarked)", "EXPERIMENTAL READOUT": "mortality at 3.5 ppm", "OBSERVED RESULT": "> 90%"}
{"MOLECULE": "C#CC(C)(CCCc1ccc(F)c(Oc2ccccc2)c1)c1ccc(CC)cc1 (centres unmarked)", "EXPERIMENTAL READOUT": "mortality at 3.5 ppm", "OBSERVED RESULT": "> 90%"}
{"MOLECULE": "C#CC(C)(CCCc1ccc(F)c(Oc2ccccc2)c1)c1ccc(Cl)c(Cl)c1 (centres unmarked)", "EXPERIMENTAL READOUT": "mortality at 3.5 ppm", "OBSERVED RESULT": "10 to 90%"}
{"MOLECULE": "C#CC(CC)(CCCc1cccc(Oc2ccccc2)c1)c1ccc(Cl)cc1 (centres unmarked)", "EXPERIMENTAL READOUT": "mortality at 3.5 ppm", "OBSERVED RESULT": "> 90%"}
{"MOLECULE": "C#CC(C)(CCCc1ccc(F)c(Oc2ccc(F)cc2)c1)c1ccc(OCC)cc1 (centres unmarked)", "EXPERIMENTAL READOUT": "mortality at 3.5 ppm", "OBSERVED RESULT": "> 90%"}
{"MOLECULE": "C=CC(C)(CCCc1cccc(Oc2ccccc2)c1)c1ccc(OCC)cc1 (centres unmarked)", "EXPERIMENTAL READOUT": "mortality at 3.5 ppm", "OBSERVED RESULT": "> 90%"}
{"MOLECULE": "C#CC(CC)(CCCc1ccc(F)c(Oc2ccccc2)c1)c1ccc(Cl)cc1 (centres unmarked)", "EXPERIMENTAL READOUT": "mortality at 3.5 ppm", "OBSERVED RESULT": "> 90%"}
{"MOLECULE": "C#CC(C)(CCCc1cccc(Oc2ccccc2)c1)c1ccc(Cl)cc1 (centres unmarked)", "EXPERIMENTAL READOUT": "mortality at 3.5 ppm", "OBSERVED RESULT": "> 90%"}
{"MOLECULE": "C#CC(C)(CCCc1ccc(F)c(Nc2ccccc2)c1)c1ccc(OCC)cc1 (centres unmarked)", "EXPERIMENTAL READOUT": "mortality at 3.5 ppm", "OBSERVED RESULT": "> 90%"}
{"MOLECULE": "C#CC(C)(CCCc1ccc(F)c(Oc2ccccc2)c1)c1ccc(F)cc1 (centres unmarked)", "EXPERIMENTAL READOUT": "mortality at 3.5 ppm", "OBSERVED RESULT": "> 90%"}
